molecular target: Y4R; experiment: cell-based or functional assay
*1 amine or outer side, *2 acyl side, *3 side chain or, on linkers, in order; H or OH if unused. [ ]: non-standard residue; d: D form. Pqa = N-piperazin-1-yl-4(3H)-quinazolinone-3-acetic acid, O=C(Cn1cnc2ccc(N3CCN([*:1])CC3)cc2c1=O)[*:2]; 3Pal = N[C@@H](Cc1cccnc1)C(=O)O; Nle = CCCC[C@H](N)C(=O)O
assayReadout: Y4R EC50(nM) FLIPR

Asked: For the binder Ac-I[Nle][Pqa]R[3Pal]YLNLVTRQRY-NH2 (SMILES CCCC[C@H](NC(=O)[C@@H](NC(C)=O)[C@@H](C)CC)C(=O)N1CCN(c2ccc3ncn(CC(=O)N[C@@H](CCCNC(=N)N)C(=O)N[C@@H](Cc4cccnc4)C(=O)N[C@@H](Cc4ccc(O)cc4)C(=O)N[C@@H](CC(C)C)C(=O)N[C@@H](CC(N)=O)C(=O)N[C@@H](CC(C)C)C(=O)N[C@H](C(=O)N[C@H](C(=O)N[C@@H](CCCNC(=N)N)C(=O)N[C@@H](CCC(N)=O)C(=O)N[C@@H](CCCNC(=N)N)C(=O)N[C@@H](Cc4ccc(O)cc4)C(N)=O)[C@@H](C)O)C(C)C)c(=O)c3c2)CC1) [Ac-Ile-Nle-Pqa-Arg-(3-Pal)-Tyr-Leu-Asn-Leu-Val-Thr-Arg-Gln-Arg-Tyr-NH2] , what Y4R EC50(nM) FLIPR is on record?
Given back: > 5000 nM

The measurements presented in this section are drawn from patent US7410949.
